Examples of binders with documented OD450 follow.
system name: T1, Anti-His
T1 construct: ELISA coating control
assay summary: ELISA, Anti-His coated 1 ug/mL
// return numeric value only (unit: OD450, not printed)

Entry NBL507-A1L1-P1R2-1A1-(1)-PME207-SEQF_A01 (VHH, purified VHH; also called lAl) VHH: EVQLVESGGGLVQPGGSLRLSCAASGFTFRSSAMSWARQAPGKGLEWVSDIYPDGRTDYADSIKGRFTMSRDNAKNTVYLLMDSLKPEDTAVYHCQVGRYVSGVYYQPRGQGTQVTVSS : reported OD450 = ?
2.1

***
Entry NBL507-A1L1-P1R2-1D2-(9)-PME207-SEQF_A02 (VHH, purified VHH) VHH: QVQLVESGGGLVQPGGSLRLSCAASGFTFSSSAMSWARQAPGKGLECVSDIYPDGTSSYADSMKGRFTISRDNTRNTMYLQMNVLKPEDTATYYCVIGRGGYAMGDRRLRGQGTQVTVSS : reported OD450 = ?
0.57
